System: T47D (PI3Kα-H1047R) cell line
assay-notes: HTRF phospho-AKT(S473) cell assay in T47D cells
Type: cell-based, human
condition: Homo sapiens; HTRF phospho-AKT(S473), T47D (PI3Kα-H1047R) cells, 2 hours compound incubation
pIC50: −log10 of the molar value.
Each record here notes measured pIC50.
quantity-measured: pIC50

* Cc1cc([C@@H](C)Nc2ccc(Cl)nc2C(=O)NS(C)(=O)=O)c2nc(N3C[C@@H]4C(c5cnc(C(F)F)nc5)[C@@H]4C3)n(C)c(=O)c2c1 (stereo partly drawn) [Compound 536] | > 6.60
* CCn1c(N2C[C@@H]3[C@H](C2)[C@H]3c2cn(C)nn2)nc2c([C@@H](C)Nc3ccc(Cl)nc3C(=O)NS(C)(=O)=O)cc(C)cc2c1=O [Compound 622] | > 6.60
* Cc1cc([C@@H](C)Nc2ccc(Cl)nc2C(=O)NS(C)(=O)=O)c2nc(N3C[C@@H]4[C@H](C3)[C@H]4c3ncc(C)o3)n(C)c(=O)c2c1 [Compound 653] | 6.30 to 6.60
* Cc1cc([C@@H](C)Nc2ccc(Cl)nc2C(=O)NS(C)(=O)=O)c2nc(N3C[C@@H]4C[C@H]3CN4c3ncc(Cl)cn3)n(C)c(=O)c2c1 [Compound 667] | 6.00 to 6.30
* CC(=O)N1CCC(c2ccc(-c3nc4c([C@@H](C)Nc5ccc(Cl)nc5C(=O)NS(C)(=O)=O)cc(C)cc4c(=O)n3C)cc2)CC1 [Compound 782] | > 6.60
* Cc1cc([C@@H](C)Nc2ccc(Cl)nc2C(=O)NS(C)(=O)=O)c2nc(N3CCC(c4ncc(C(F)(F)F)cn4)CC3)n(C)c(=O)c2c1 [Compound 630] | 6.00 to 6.30

---

Tested on: T47D (PI3Kα-H1047R) cell line
assay-notes: HTRF phospho-AKT(S473) cell assay in T47D cells
Type: cell-based, human
condition: Homo sapiens; HTRF phospho-AKT(S473), T47D (PI3Kα-H1047R) cells, 2 hours compound incubation
Description: Compounds in the present disclosure were tested in a cell based HTRF phospho-AKT(S473) (CisBio/Revvity) assay in human breast cancer cell lines as a measurement of PIK3CA activity through measuring AKT, a downstream effector. The activity of mutant PI3Kα-H1047R and PI3Kα-Wild Type was measured in the T47D (PI3Kα-H1047R) and SKBR3 (PI3Kα-Wild Type) cell lines, respectively. […] The following day, plates were centrifuged for 1 minute at 1000 rpm, and read on a PHERAstar plate reader. […]
Each record here notes measured IC50.
quantity-measured: IC50

* CC(=O)N1CCN(c2ccc(-c3nc4c([C@@H](C)Nc5ccc(Cl)nc5C(=O)NS(C)(=O)=O)cc(C)cc4c(=O)n3C)cc2F)CC1(C)C | < 250 nM
* Cc1cc([C@@H](C)Nc2ccc(Cl)nc2C(=O)NS(C)(=O)=O)c2nc(N3CCN(c4cnccn4)CC3)n(C)c(=O)c2c1 | < 250 nM
* Cc1cc([C@@H](C)Nc2ccc(Cl)nc2C(=O)NS(C)(=O)=O)c2nc(N3CC[C@@H](Oc4ccc(F)cn4)C3)n(C)c(=O)c2c1 | 250 to 500 nM
* Cc1cc([C@@H](C)Nc2ccc(Cl)nc2C(=O)NS(C)(=O)=O)c2nc(N3CC[C@H](c4ccnc(C)c4)C3)n(C)c(=O)c2c1 (relative stereo) | < 250 nM
* Cc1cc([C@@H](C)Nc2ccc(Cl)nc2C(=O)NS(C)(=O)=O)c2nc([C@H]3[C@@H]4CN(c5nccc(C)n5)C[C@@H]43)n(C)c(=O)c2c1 | 250 to 500 nM
* Cc1cc([C@@H](C)Nc2ccc(Cl)nc2C(=O)NS(C)(=O)=O)c2nc(N3CCN(c4ncc(C#N)cn4)CC3)n(C)c(=O)c2c1 | < 250 nM
